The values you see were collected from the supplement of paper PMC4466140.

- TARGET_ENTITY: CaAbp1-D2
- METHOD_SUMMARY: SPOT peptide array binding signal intensity (averaged, normalized) (arbitrary units (background-subtracted, floor 0; scale differs between SH3 domains)); higher = stronger binding of the SH3 domain to the peptide
MEASUREMENT_LABEL: SPOT peptide array binding signal intensity
Format: numeric value only, no unit, no commentary.

Entry "VGFRLALKFPSRITG" ; SPOT peptide array binding signal intensity = 1210

Entry "LKQRFFLMFPKSIIW" ; SPOT peptide array binding signal intensity = 65.5

Entry "ALFRLSFFFPLDPAY" ; SPOT peptide array binding signal intensity = 621

Entry "MKRSRPSRSIPYTTP" ; SPOT peptide array binding signal intensity = 476

Entry "PVLPPPRSPNRPTLS" ; SPOT peptide array binding signal intensity = 79

Entry "QGYPRQPQRPQRYHP" ; SPOT peptide array binding signal intensity = 11
